Collected inhibition values appear next to each entry.
Experimental System: Cholinesterase (Equus caballus) (UniProt P81908)
Sequence (P81908 whole entry): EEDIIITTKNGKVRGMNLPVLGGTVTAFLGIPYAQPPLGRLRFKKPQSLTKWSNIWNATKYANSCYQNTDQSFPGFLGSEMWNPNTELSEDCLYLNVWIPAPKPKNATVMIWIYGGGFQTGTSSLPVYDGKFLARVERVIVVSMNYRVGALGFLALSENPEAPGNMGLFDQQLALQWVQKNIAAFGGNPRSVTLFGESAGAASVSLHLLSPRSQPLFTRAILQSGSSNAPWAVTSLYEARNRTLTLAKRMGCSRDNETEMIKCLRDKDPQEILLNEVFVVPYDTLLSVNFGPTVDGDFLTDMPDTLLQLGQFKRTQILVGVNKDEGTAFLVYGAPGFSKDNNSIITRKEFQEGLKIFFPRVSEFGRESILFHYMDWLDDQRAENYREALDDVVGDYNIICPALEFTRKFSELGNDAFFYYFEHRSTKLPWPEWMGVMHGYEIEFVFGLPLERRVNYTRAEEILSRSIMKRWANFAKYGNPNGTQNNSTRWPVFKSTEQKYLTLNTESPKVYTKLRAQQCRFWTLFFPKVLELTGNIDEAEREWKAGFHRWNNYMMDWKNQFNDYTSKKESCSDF
Method: Inhibition of equine serum BChE using butyrylthiocholine iodide as substrate at 10^-4 M preincubated for 15 mins followed by substrate addition and measured for 5 mins by Ellmans method
Write the value in % as a bare number.

Worked examples, 5 compounds total:
• COc1cc2c(cc1OC)C(=O)C(CC1CCN(CC(=O)Nc3ccc(F)cc3)CC1)C2 (stereo not drawn) = 1.99
• CCN1CCN(c2ccc(/C=C3/Cc4ccc(OC)cc4C3=O)cc2)CC1 = 4.2
• COc1ccc2c(c1)C(=O)/C(=C\c1ccc(N3CCN(c4ccccc4)CC3)cc1)C2 = 1.06
• COc1cc2c(cc1OC)C(=O)C(CC1CCN(CC(=O)Nc3nc4ccc(F)cc4s3)CC1)C2 (stereo not drawn) = 3.1
• COc1cc2c(cc1OC)C(=O)/C(=C\c1ccc(N3CCN(CCN(C)C)CC3)cc1)C2 = 12.1

Challenge: # query: inhibition of entry COc1cc2c(cc1OC)C(=O)C(CC1CCN(CC(=O)Nc3nc4ccccc4s3)CC1)C2 (stereo not drawn)
Response given: 2.31

Challenge: # query: inhibition of entry `CCN(CC)c1ccc(/C=C2/Cc3cc(OC)ccc3C2=O)cc1`
Response given: 5.27

Challenge: # query: inhibition of entry `COc1ccc2c(c1)C/C(=C/c1ccc(N3CCN(CCO)CC3)cc1)C2=O`
Response given: 5.91

Challenge: # query: inhibition of entry COc1cc2c(cc1OC)C(=O)C(CC1CCN(CC(=O)Nc3ccc(Cl)cc3)CC1)C2 (stereo not drawn)
Response given: 2.77

Challenge: # query: inhibition of entry `COc1ccc2c(c1)C/C(=C/c1ccc(N3CCCC3)cc1)C2=O`
Response given: 1.25

Challenge: # query: inhibition of entry `COc1cc2c(cc1OC)C(=O)/C(=C\c1ccc(N3CCN(c4ccccc4)CC3)cc1)C2`
Response given: 1.08

Challenge: # query: inhibition of entry `CCN1CCN(c2ccc(/C=C3/Cc4cc(OC)c(OC)cc4C3=O)cc2)CC1`
Response given: 8.56

Challenge: # query: inhibition of entry COc1ccc2nc(NC(=O)CN3CCC(CC4Cc5cc(OC)c(OC)cc5C4=O)CC3)sc2c1 (stereo not drawn)
Response given: 3.19

----------
Experimental System: Acetylcholinesterase (Electrophorus electricus)
Sequence (O42275 whole entry): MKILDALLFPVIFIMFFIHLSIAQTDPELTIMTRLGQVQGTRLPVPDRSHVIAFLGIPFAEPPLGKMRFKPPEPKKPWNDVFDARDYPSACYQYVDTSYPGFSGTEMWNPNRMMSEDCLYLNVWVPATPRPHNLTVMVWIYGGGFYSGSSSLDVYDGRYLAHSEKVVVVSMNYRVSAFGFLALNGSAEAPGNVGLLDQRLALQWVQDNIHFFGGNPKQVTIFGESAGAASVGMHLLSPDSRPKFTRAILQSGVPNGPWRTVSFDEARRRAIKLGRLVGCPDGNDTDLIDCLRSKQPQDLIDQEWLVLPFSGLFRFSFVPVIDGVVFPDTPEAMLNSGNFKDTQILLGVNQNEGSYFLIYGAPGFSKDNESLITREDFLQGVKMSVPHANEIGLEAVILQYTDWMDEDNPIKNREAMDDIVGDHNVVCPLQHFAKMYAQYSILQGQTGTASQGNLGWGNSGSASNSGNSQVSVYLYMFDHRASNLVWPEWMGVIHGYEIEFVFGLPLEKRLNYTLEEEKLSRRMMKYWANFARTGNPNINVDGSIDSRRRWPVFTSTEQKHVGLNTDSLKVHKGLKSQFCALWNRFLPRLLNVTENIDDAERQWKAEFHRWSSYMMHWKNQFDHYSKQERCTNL
Method: Inhibition of electric eel AChE using acetylthiocholine iodide as substrate preincubated for 15 mins followed by substrate addition and measured for 5 mins by Ellmans method
Metric Name: IC50 (µM)
Write the value in µM as a bare number.

Worked examples, 3 compounds total:
* COc1cc2c(cc1OC)C(=O)/C(=C\c1ccc(N3CCN(CCCN(C)C)CC3)cc1)C2 | 4.89
* COc1cc2c(cc1OC)C(=O)/C(=C\c1ccc(N3CCN(CCN(C)C)CC3)cc1)C2 | 6.38
* COc1ccc2c(c1)C(=O)/C(=C\c1ccc(N3CCN(CCCN(C)C)CC3)cc1)C2 | 6.06

Consider now this further compound.
Challenge: # query: IC50 of entry `COc1ccc2c(c1)C/C(=C/c1ccc(N3CCN(CCCN(C)C)CC3)cc1)C2=O`
Response given: 8.54

----------
Collected inhibition values appear next to each entry.
Experimental System: Cholinesterase (Equus caballus) (UniProt P81908)
Method: Inhibition of equine serum BChE using butyrylthiocholine iodide as substrate at 10^-4 M preincubated for 15 mins followed by substrate addition and measured for 5 mins by Ellmans method
Write the value in % as a bare number.

Worked examples, 8 compounds total:
• COc1ccc(NC(=O)CN2CCC(CC3Cc4cc(OC)c(OC)cc4C3=O)CC2)cc1 (stereo not given) = 1.33
• COc1cc2c(cc1OC)C(=O)C(CC1CCN(CC(=O)Nc3ccccc3)CC1)C2 (stereo not given) = 2.58
• COc1cc2c(cc1OC)C(=O)/C(=C\c1ccc(N3CCN(C)CC3)cc1)C2 = 8.55
• COc1cc2c(cc1OC)C(=O)C(CC1CCN(CC(=O)Nc3nc4ccc(C)cc4s3)CC1)C2 (stereo not given) = 2.08
• COc1ccc2c(c1)C(=O)/C(=C\c1ccc(N3CCCC3)cc1)C2 = 3.18
• COc1ccc2c(c1)C(=O)/C(=C\c1ccc(N3CCN(CCN(C)C)CC3)cc1)C2 = 10.6
• COc1cc2c(cc1OC)C(=O)C(CC1CCN(CC(=O)Nc3nc4ccc(Cl)cc4s3)CC1)C2 (stereo not given) = 3.09
• COc1ccc2c(c1)C/C(=C/c1ccc(N3CCN(CCN(C)C)CC3)cc1)C2=O = 9.56

Challenge: # query: inhibition of entry COc1cc2c(cc1OC)C(=O)C(CC1CCN(CC(=O)Nc3ccc(C)cc3)CC1)C2 (stereo not given)
Response given: 3.2

Challenge: # query: inhibition of entry `CCN(CC)c1ccc(/C=C2/Cc3ccc(OC)cc3C2=O)cc1`
Response given: 1.65

----------
Experimental System: Cholinesterase (Equus caballus)
Method: Inhibition of equine serum BChE using butyrylthiocholine iodide as substrate at 10^-3 M preincubated for 15 mins followed by substrate addition and measured for 5 mins by Ellmans method
true means recorded inhibition is 5% or above; false means it is below 5%.

Some solved entries appear below for comparison.
- COc1cc2c(cc1OC)C(=O)/C(=C\c1ccc(N3CCN(CCO)CC3)cc1)C2: true
- COc1ccc2c(c1)C(=O)/C(=C\c1ccc(N3CCN(c4ccccc4)CC3)cc1)C2: false

Challenge: Reported inhibition at or above 5%? `CCN(CC)c1ccc(/C=C2/Cc3cc(OC)ccc3C2=O)cc1`
Response given: true

Challenge: Reported inhibition at or above 5%? `COc1ccc2c(c1)C/C(=C/c1ccc(N3CCN(CCCN(C)C)CC3)cc1)C2=O`
Response given: true

Challenge: Reported inhibition at or above 5%? COc1cc2c(cc1OC)C(=O)C(CC1CCN(CC(=O)Nc3ccc(Cl)cc3)CC1)C2 (stereo not given)
Response given: true

Challenge: Reported inhibition at or above 5%? `COc1ccc2c(c1)C/C(=C/c1ccc(N3CCN(c4ccccc4)CC3)cc1)C2=O`
Response given: true

Challenge: Reported inhibition at or above 5%? `COc1cc2c(cc1OC)C(=O)/C(=C\c1ccc(N3CCN(C)CC3)cc1)C2`
Response given: true

----------
Collected inhibition values appear next to each entry.
Experimental System: Cholinesterase (Equus caballus) (UniProt P81908)
Method: Inhibition of equine serum BChE using butyrylthiocholine iodide as substrate at 10^-4 M preincubated for 15 mins followed by substrate addition and measured for 5 mins by Ellmans method
Write the value in % as a bare number.

- COc1cc2c(cc1OC)C(=O)/C(=C\c1ccc(N3CCCC3)cc1)C2: 2.77

Challenge: Param readout= inhibition; system= Cholinesterase (Equus caballus) (UniProt P81908); entry= COc1ccc(NC(=O)CN2CCC(CC3Cc4cc(OC)c(OC)cc4C3=O)CC2)cc1OC (stereo not given) ; returns value.
Response given: 1.29

----------
Experimental System: Cholinesterase (Equus caballus) (UniProt P81908)
Method: Inhibition of equine serum BChE using butyrylthiocholine iodide as substrate at 10^-3 M preincubated for 15 mins followed by substrate addition and measured for 5 mins by Ellmans method
Collected inhibition values appear next to each entry.
Write the value in % as a bare number.

Worked examples, 10 compounds total:
- COc1cc2c(cc1OC)C(=O)C(CC1CCN(CC(=O)Nc3ccc(C)cc3)CC1)C2 (stereo not drawn): 5.89
- COc1cc2c(cc1OC)C(=O)C(CC1CCN(CC(=O)Nc3nc4ccc(F)cc4s3)CC1)C2 (stereo not drawn): 4.89
- COc1ccc2c(c1)C(=O)/C(=C\c1ccc(N3CCN(C)CC3)cc1)C2: 14.7
- CCN(CC)c1ccc(/C=C2/Cc3cc(OC)c(OC)cc3C2=O)cc1: 3.76
- COc1ccc2c(c1)C(=O)/C(=C\c1ccc(N3CCN(CCN(C)C)CC3)cc1)C2: 17.2
- COc1ccc2c(c1)C/C(=C/c1ccc(N3CCCC3)cc1)C2=O: 3.08
- COc1cc2c(cc1OC)C(=O)C(CC1CCN(CC(=O)Nc3nc4cc(OC)c(OC)cc4s3)CC1)C2 (stereo not drawn): 3.77
- COc1cc2c(cc1OC)C(=O)/C(=C\c1ccc(N3CCN(c4ccccc4)CC3)cc1)C2: 3.22
- COc1cc2c(cc1OC)C(=O)C(CC1CCN(CC(=O)Nc3ccc(F)cc3)CC1)C2 (stereo not drawn): 4.75
- COc1cc2c(cc1OC)C(=O)C(CC1CCN(CC(=O)Nc3nc4ccc(Cl)cc4s3)CC1)C2 (stereo not drawn): 6.21

Challenge: # query: inhibition of entry `CCN1CCN(c2ccc(/C=C3/Cc4cc(OC)ccc4C3=O)cc2)CC1`
Response given: 15.1

Challenge: # query: inhibition of entry `COc1cc2c(cc1OC)C(=O)/C(=C\c1ccc(N3CCN(CCN(C)C)CC3)cc1)C2`
Response given: 17

Challenge: # query: inhibition of entry `COc1ccc2c(c1)C(=O)/C(=C\c1ccc(N3CCN(CCCN(C)C)CC3)cc1)C2`
Response given: 16.1

Challenge: # query: inhibition of entry `COc1cc2c(cc1OC)C(=O)/C(=C\c1ccc(N3CCN(CCCN(C)C)CC3)cc1)C2`
Response given: 18.7

Challenge: # query: inhibition of entry `COc1ccc2c(c1)C/C(=C/c1ccc(N3CCN(CCN(C)C)CC3)cc1)C2=O`
Response given: 15.2

All values here come from ChEMBL document CHEMBL3875179.
